Assayed system: hNav1.7 and the β1 subunit (Homo sapiens)
Construct: expressed in transfected cells
Sequence (Q15858 whole entry): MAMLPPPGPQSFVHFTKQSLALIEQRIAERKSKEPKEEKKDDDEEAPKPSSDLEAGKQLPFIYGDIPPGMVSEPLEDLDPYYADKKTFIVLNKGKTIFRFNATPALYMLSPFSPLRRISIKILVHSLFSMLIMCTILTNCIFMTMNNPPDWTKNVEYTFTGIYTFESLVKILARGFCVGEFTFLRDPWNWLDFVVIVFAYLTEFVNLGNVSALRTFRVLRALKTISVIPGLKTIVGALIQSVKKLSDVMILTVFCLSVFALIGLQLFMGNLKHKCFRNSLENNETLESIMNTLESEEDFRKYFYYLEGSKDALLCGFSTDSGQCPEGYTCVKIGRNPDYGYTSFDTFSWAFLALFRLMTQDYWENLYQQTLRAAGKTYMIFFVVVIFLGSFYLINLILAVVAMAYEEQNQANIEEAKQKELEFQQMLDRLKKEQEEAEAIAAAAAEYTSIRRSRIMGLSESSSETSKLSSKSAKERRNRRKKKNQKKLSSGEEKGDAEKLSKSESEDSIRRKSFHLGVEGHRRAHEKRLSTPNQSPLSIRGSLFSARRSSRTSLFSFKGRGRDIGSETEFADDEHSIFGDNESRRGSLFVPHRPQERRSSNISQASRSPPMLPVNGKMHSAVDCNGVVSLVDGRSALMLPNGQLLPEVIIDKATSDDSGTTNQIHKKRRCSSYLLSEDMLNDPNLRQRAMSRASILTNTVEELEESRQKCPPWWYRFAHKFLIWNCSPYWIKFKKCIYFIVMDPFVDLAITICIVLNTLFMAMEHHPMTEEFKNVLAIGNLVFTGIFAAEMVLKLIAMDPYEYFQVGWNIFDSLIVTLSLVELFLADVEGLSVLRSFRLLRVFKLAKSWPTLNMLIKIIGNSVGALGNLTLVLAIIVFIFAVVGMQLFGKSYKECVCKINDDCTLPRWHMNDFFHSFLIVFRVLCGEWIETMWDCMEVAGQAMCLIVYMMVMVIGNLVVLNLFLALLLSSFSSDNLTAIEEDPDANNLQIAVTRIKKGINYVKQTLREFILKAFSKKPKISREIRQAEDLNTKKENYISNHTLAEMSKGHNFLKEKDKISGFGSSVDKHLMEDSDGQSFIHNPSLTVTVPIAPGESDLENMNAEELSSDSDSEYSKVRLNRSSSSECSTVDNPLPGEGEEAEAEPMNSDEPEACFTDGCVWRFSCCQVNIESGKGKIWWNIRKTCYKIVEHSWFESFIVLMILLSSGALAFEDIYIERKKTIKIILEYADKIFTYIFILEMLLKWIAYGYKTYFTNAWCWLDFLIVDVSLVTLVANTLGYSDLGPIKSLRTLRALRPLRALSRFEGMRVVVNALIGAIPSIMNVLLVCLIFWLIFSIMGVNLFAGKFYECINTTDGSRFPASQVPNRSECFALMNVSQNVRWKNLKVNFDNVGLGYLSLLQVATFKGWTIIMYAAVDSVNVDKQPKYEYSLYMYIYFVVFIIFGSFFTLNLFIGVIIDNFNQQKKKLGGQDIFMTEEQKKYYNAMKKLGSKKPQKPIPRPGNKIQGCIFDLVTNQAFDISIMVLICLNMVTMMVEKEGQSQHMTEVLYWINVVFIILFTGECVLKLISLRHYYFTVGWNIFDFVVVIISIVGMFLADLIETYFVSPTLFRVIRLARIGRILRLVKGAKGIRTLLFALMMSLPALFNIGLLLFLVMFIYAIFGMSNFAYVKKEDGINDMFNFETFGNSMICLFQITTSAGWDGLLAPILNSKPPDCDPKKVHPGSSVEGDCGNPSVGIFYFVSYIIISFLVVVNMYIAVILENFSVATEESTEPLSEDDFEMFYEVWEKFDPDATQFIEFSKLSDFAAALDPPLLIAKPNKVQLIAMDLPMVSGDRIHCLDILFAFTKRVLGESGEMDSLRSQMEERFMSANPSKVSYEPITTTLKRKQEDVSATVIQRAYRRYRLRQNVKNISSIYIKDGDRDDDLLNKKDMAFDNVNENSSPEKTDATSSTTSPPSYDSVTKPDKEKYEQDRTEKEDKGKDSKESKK
Sequence (Q07699 19-218 partner): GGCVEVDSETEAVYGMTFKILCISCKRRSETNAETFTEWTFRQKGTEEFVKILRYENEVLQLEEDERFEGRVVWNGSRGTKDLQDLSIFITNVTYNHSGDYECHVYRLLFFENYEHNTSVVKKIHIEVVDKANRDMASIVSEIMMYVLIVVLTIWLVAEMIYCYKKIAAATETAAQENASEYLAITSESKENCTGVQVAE
Measurement protocol: Tritiated compound competitive binding to membranes from cells heterologously expressing hNav1.7 and the β1 subunit (LBA)
Conditions: competition with 100 pM [3H]compound, 18 h, room temperature; IC50 by 4 parameter logistic model
Recorded metric: Nav1.7 (LBA) (µM)

O=S(=O)(Nc1nccs1)c1cc2c(cc1F)[C@H](N1CC[C@@H](C(F)(F)F)C[C@H]1c1ccc(F)c(F)c1)CCO2 [Example 197]: 0.351
O=S(=O)(Nc1ncns1)c1cc(F)c(CN2CC[C@H](OC(F)(F)F)C[C@H]2c2ccccc2)cc1F (single isomer, unassigned) [Example 36]: 0.538
O=S(=O)(Nc1ncns1)c1ccc2c(c1)OCC[C@H]2N1CC[C@H](OC(F)(F)F)C[C@@H]1c1ccc(F)cc1 [Example 176]: 0.0248

A. O=S(=O)(Nc1ncns1)c1ccc2c(c1)OCC[C@@H]2N1CC[C@](O)(C(F)(F)F)C[C@@H]1c1ccc(F)cc1 [Example 169]
B. Nc1cc([C@@H]2CCCCN2Cc2cc(F)c(S(=O)(=O)Nc3ncns3)cc2F)ccn1 (single isomer, unassigned) [Example 13]
C. O=S(=O)(Nc1ncns1)c1ccc2c(c1)OCC[C@H]2N1CCC(F)(F)C[C@H]1c1ccccc1 (single isomer, unassigned) [Example 139]
stdin: Sort (3 compounds) by Nav1.7 (LBA): min first. Would you mind listing the labels in the order asked for?
stdout: A, B, C
(A: 0.0682 µM, B: 0.158 µM, C: 2.29 µM)
